Measured microsomal CLint at 1 µM by item
# assay method text: Metabolic stability in liver microsomes (intrinsic clearance)
# Format: in vitro ADME
# condition: mouse, microsomes, pH 7.4, mouse liver microsomes; read-out: Metabolic Stability (liver microsome intrinsic clearance) Clearance (mouse, μl/min./mg protein)

Observe how each entry below is paired with its result.
# compound, microsomal CLint at 1 µM
measured = [
    ("CCc1nc2n(c1C(=O)NCc1ccc(-c3cc4n(n3)CCC(C(F)(F)F)C4)cc1)CCCC2 (stereo not drawn) [Compound 179]", "53.5 µL/min/mg"),
    ("[2H]C([2H])([2H])c1cnc2nc(CC)c(C(=O)NCc3ccc(-c4nc5n(n4)CC[C@H](C(F)(F)F)C5)cc3)n2c1 [Compound 51]", "< 7.7 µL/min/mg"),
]

Task item: Which microsomal CLint at 1 µM is listed for CCc1nc2ncc(Cl)cn2c1C(=O)NCc1ccc(-c2nc3n(n2)CCC(C(F)(F)F)C3)cc1 (single isomer, unassigned) [Compound 10a] ?
Reply: < 7.7 µL/min/mg
